Values from ChEMBL document CHEMBL1153893

System: Cynomolgus monkey
protocol-summary: AUC (0 to infinity) in cynomolgus monkey at 1 mg/kg, po
Assay type: ADME, organism-based, Macaca fascicularis, Plasma
Design: time infinity, dose 1 mg/kg, route oral
condition-description: in vivo
measured-metric: AUC (ng·h/mL)

>  <compound>
CC(C)(C)CCN1C(=O)C(C2=NS(=O)(=O)c3cc(NS(C)(=O)=O)ccc3N2)=C(O)C2CCCC21 (racemic)

>  <measured-metric>
AUC

>  <observed-result>
636

$$$$
>  <compound>
CS(=O)(=O)Nc1ccc2c(c1)S(=O)(=O)N=C(C1=C(O)[C@@H]3CCCC[C@@H]3N(Cc3ccc(F)cc3)C1=O)N2

>  <measured-metric>
AUC

>  <observed-result>
610

$$$$

I. CS(=O)(=O)Nc1ccc2c(c1)S(=O)(=O)N=C(C1=C(O)C3CCCCCC3N(Cc3ccc(F)cc3)C1=O)N2 (racemic)
II. CC(C)CCN1C(=O)C(C2=NS(=O)(=O)c3cc(NS(C)(=O)=O)ccc3N2)=C(O)C2CCCCC21 (racemic)
III. CS(=O)(=O)Nc1ccc2c(c1)S(=O)(=O)N=C(C1=C(O)[C@H]3CCCC[C@H]3N(Cc3ccc(F)cc3)C1=O)N2
rank_up(items): orders items by reported AUC in ascending numerical order. Use the labels to give the requested order.
II, I, III
(II: 67 ng·h/mL, I: 655 ng·h/mL, III: 2910 ng·h/mL)

---

protocol-summary: Apparent permeability across human Caco-2 cells from apical to basolateral side in human Caco2 cell membrane
Assay type: ADME, cell-based
measured-metric: Papp A→B (×10⁻⁶ cm/s)

Solved entries (count: 5):
>  <molecule>
CS(=O)(=O)Nc1ccc2c(c1)S(=O)(=O)N=C(c1c(O)c3cccn3n(Cc3ccc(F)cc3)c1=O)N2

>  <observed-result>
0.1

$$$$
>  <molecule>
CC(C)CCN1C(=O)C(C2=NS(=O)(=O)c3cc(NS(C)(=O)=O)ccc3N2)=C(O)C2CCCCC21 (racemic)

>  <observed-result>
3.1

$$$$
>  <molecule>
CS(=O)(=O)Nc1ccc2c(c1)S(=O)(=O)N=C(C1=C(O)[C@H]3CCC[C@H]3N(Cc3ccc(F)c(F)c3)C1=O)N2

>  <observed-result>
0.83

$$$$
>  <molecule>
CC(C)(C)CCN1C(=O)C(C2=NS(=O)(=O)c3cc(NS(C)(=O)=O)ccc3N2)=C(O)C2CCCCC21 (racemic)

>  <observed-result>
3.1

$$$$
>  <molecule>
CC(C)CCN1C(=O)C(C2=NS(=O)(=O)c3cc(NS(C)(=O)=O)ccc3N2)=C(O)C2CCCC21 (racemic)

>  <observed-result>
3.3

$$$$

P. CS(=O)(=O)Nc1ccc2c(c1)S(=O)(=O)N=C(C1=C(O)C3CCCCCC3N(Cc3ccc(F)cc3)C1=O)N2 (racemic)
Q. CS(=O)(=O)Nc1ccc2c(c1)S(=O)(=O)N=C(C1=C(O)[C@H]3CCC[C@H]3N(Cc3ccc(F)cc3)C1=O)N2
R. CC(C)(C)CCN1C(=O)C(C2=NS(=O)(=O)c3cc(NS(C)(=O)=O)ccc3N2)=C(O)C2CCCC21 (racemic)
Output the entries ranked by Papp A→B from maximum down to minimum. To answer, write out the labels according to the requested order.
R, Q, P

---

protocol-summary: Clearance in cynomolgus monkey at 1 mg/kg, iv
Format: ADME, organism-based, Macaca fascicularis
Design: dose 1 mg/kg, route intravenous
condition-description: in vivo
measured-metric: clearance (mL/min/kg)

The cases that follow already have their clearance on record.
>  <compound>
CC(C)(C)CCN1C(=O)C(C2=NS(=O)(=O)c3cc(NS(C)(=O)=O)ccc3N2)=C(O)C2CCCCC21 (racemic)

>  <clearance (mL/min/kg)>
4.9

$$$$
>  <compound>
CS(=O)(=O)Nc1ccc2c(c1)S(=O)(=O)N=C(C1=C(O)[C@H]3CCC[C@H]3N(Cc3ccc(F)cc3)C1=O)N2

>  <clearance (mL/min/kg)>
0.63

$$$$
>  <compound>
CC(C)CCN1C(=O)C(C2=NS(=O)(=O)c3cc(NS(C)(=O)=O)ccc3N2)=C(O)C2CCCC21 (racemic)

>  <clearance (mL/min/kg)>
6.2

$$$$

1. CC(C)CCN1C(=O)C(C2=NS(=O)(=O)c3cc(NS(C)(=O)=O)ccc3N2)=C(O)C2CCCCC21 (racemic)
2. CS(=O)(=O)Nc1ccc2c(c1)S(=O)(=O)N=C(C1=C(O)[C@H]3CCCC[C@H]3N(Cc3ccc(F)cc3)C1=O)N2
3. CS(=O)(=O)Nc1ccc2c(c1)S(=O)(=O)NC(C1=C(O)[C@@H]3CCC[C@@H]3N(Cc3ccc(F)cc3)C1=O)=N2
4. CS(=O)(=O)Nc1ccc2c(c1)S(=O)(=O)N=C(C1=C(O)[C@H]3CCC[C@H]3N(Cc3ccc(F)c(F)c3)C1=O)N2
Put the items in order so that reported clearance rises from first to last. Form entry: ranked labels (order as requested).
2, 4, 3, 1
(2: 0.7 mL/min/kg, 4: 1.2 mL/min/kg, 3: 3.45 mL/min/kg, 1: 18.2 mL/min/kg)

---

protocol-summary: Metabolic stability in human liver microsomes assessed as compound remaining at 1 uM after 60 mins
Assay type: ADME, Microsome
condition-description: read-out: Stability
measured-metric: remaining at 1 h, 1 µM (%)

>  <compound>
CS(=O)(=O)Nc1ccc2c(c1)S(=O)(=O)N=C(C1=C(O)C3CCCC3N(Cc3ccc(F)cc3)C1=O)N2 (racemic)

>  <unit-abbrev>
%

>  <remaining at 1 h, 1 µM>
98

$$$$
>  <compound>
CS(=O)(=O)Nc1ccc2c(c1)S(=O)(=O)NC(C1=C(O)[C@@H]3CCC[C@@H]3N(Cc3ccc(F)cc3)C1=O)=N2

>  <unit-abbrev>
%

>  <remaining at 1 h, 1 µM>
84

$$$$
>  <compound>
CS(=O)(=O)Nc1ccc2c(c1)S(=O)(=O)N=C(C1=C(O)C3CCCC3N(Cc3ccc(F)cn3)C1=O)N2 (racemic)

>  <unit-abbrev>
%

>  <remaining at 1 h, 1 µM>
100

$$$$
>  <compound>
CS(=O)(=O)Nc1ccc2c(c1)S(=O)(=O)N=C(C1=C(O)C3CCCCCCC3N(Cc3ccc(F)cc3)C1=O)N2 (racemic)

>  <unit-abbrev>
%

>  <remaining at 1 h, 1 µM>
66

$$$$
>  <compound>
CS(=O)(=O)Nc1ccc2c(c1)S(=O)(=O)N=C(C1=C(O)[C@H]3CCCC[C@H]3N(Cc3ccc(F)cc3)C1=O)N2

>  <unit-abbrev>
%

>  <remaining at 1 h, 1 µM>
99

$$$$

a. Cc1cccc(CN2C(=O)C(C3=NS(=O)(=O)c4cc(NS(C)(=O)=O)ccc4N3)=C(O)[C@H]3CCC[C@H]32)c1
b. CS(=O)(=O)Nc1ccc2c(c1)S(=O)(=O)N=C(C1=C(O)[C@H]3CCC[C@H]3N(CC3CC3)C1=O)N2
Between the entries labelled a and b , which has a larger remaining at 1 h, 1 µM value on record? Answer with the label corresponding to your selection.
b
(b: 99%, a: 67%)

---

Tested on: Cynomolgus monkey
protocol-summary: AUC (0 to infinity) in cynomolgus monkey at 1 mg/kg, iv
Format: ADME, organism-based, Macaca fascicularis, Plasma
Parameters: dose 1 mg/kg, route intravenous, time infinity
condition-description: in vivo
measured-metric: AUC (ng·h/mL)

>  <molecule>
CS(=O)(=O)Nc1ccc2c(c1)S(=O)(=O)N=C(C1=C(O)C3CCCCCC3N(Cc3ccc(F)cc3)C1=O)N2 (racemic)

>  <unit-abbrev>
ng·h/mL

>  <AUC>
4840

$$$$
>  <molecule>
CS(=O)(=O)Nc1ccc2c(c1)S(=O)(=O)N=C(C1=C(O)[C@H]3CCC[C@H]3N(Cc3ccc(F)cc3)C1=O)N2

>  <unit-abbrev>
ng·h/mL

>  <AUC>
29100

$$$$
>  <molecule>
CS(=O)(=O)Nc1ccc2c(c1)S(=O)(=O)NC(C1=C(O)[C@@H]3CCC[C@@H]3N(Cc3ccc(F)cc3)C1=O)=N2

>  <unit-abbrev>
ng·h/mL

>  <AUC>
4840

$$$$

a. CC(C)CCN1C(=O)C(C2=NS(=O)(=O)c3cc(NS(C)(=O)=O)ccc3N2)=C(O)C2CCCC21 (racemic)
b. CC(C)(C)CCN1C(=O)C(C2=NS(=O)(=O)c3cc(NS(C)(=O)=O)ccc3N2)=C(O)C2CCCN21 (configuration not stated)
c. CS(=O)(=O)Nc1ccc2c(c1)S(=O)(=O)N=C(C1=C(O)[C@@H]3CCCC[C@@H]3N(Cc3ccc(F)cc3)C1=O)N2
d. CC(C)CCN1C(=O)C(C2=NS(=O)(=O)c3cc(NS(C)(=O)=O)ccc3N2)=C(O)C2CCCCC21 (racemic)
Please produce an ascending ranking of these molecules based on AUC. Return value: ordered labels per request.
d, a, b, c
